Just for reference, ChEMBL document CHEMBL2021850 is where these values come from.

- system under test: Glucocorticoid receptor (Homo sapiens)
- Sequence (P04150 whole entry): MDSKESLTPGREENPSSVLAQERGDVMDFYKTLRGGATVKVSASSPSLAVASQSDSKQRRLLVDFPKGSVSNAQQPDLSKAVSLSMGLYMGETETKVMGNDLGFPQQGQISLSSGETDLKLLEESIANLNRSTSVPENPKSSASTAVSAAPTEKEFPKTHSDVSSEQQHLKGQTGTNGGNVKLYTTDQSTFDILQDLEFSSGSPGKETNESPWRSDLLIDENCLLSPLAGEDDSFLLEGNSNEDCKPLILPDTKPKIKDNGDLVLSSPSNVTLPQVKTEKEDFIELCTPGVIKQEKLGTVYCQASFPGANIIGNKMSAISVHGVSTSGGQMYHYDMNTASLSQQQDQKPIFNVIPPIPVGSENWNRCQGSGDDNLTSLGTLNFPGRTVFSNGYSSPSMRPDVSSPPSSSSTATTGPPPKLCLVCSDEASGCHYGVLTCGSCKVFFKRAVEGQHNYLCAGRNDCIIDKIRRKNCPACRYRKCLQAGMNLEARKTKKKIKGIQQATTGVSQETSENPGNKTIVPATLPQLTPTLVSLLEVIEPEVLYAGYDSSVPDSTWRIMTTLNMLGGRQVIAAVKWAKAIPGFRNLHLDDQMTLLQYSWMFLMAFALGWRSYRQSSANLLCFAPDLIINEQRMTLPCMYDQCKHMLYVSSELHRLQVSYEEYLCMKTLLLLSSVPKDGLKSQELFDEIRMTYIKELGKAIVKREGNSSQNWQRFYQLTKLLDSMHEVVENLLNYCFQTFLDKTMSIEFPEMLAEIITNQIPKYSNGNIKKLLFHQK
- assay info: Transactivation activity at human glucocorticoid receptor in cells co-expressing GRE by luciferase reporter gene assay
- condition notes: read-out: IC50 (the source's name)
pEC50: −log10 of the molar value.
Lab note: anything with pEC50 at or over 8 counts as YES; the rest go in NO.

# mol smiles, label class
records = [
    ("Cc1nc(SCC(=O)[C@@]2(O)CC[C@H]3[C@@H]4CCC5=Cc6c(cnn6C6CCCCC6)C[C@]5(C)[C@H]4[C@@H](O)C[C@@]32C)sc1C", "NO"),
    ("C=CCn1c(SCC(=O)[C@@]2(O)CC[C@H]3[C@@H]4CCC5=Cc6c(cnn6-c6ccccc6)C[C@]5(C)[C@H]4[C@@H](O)C[C@@]32C)nc2ccccc21", "NO"),
    ("Cn1c(SCC(=O)[C@@]2(O)CC[C@H]3[C@@H]4CCC5=Cc6c(cnn6-c6ccccc6)C[C@]5(C)[C@H]4[C@@H](O)C[C@@]32C)nc2ccccc21", "NO"),
    ("C[C@]12Cc3cnn(C4CCCCC4)c3C=C1CC[C@@H]1[C@@H]2[C@@H](O)C[C@@]2(C)[C@H]1CC[C@]2(O)C(=O)CSc1ncccn1", "NO"),
    ("C[C@]12Cc3cnn(-c4ccccc4)c3C=C1CC[C@@H]1[C@@H]2[C@@H](O)C[C@@]2(C)[C@H]1CC[C@]2(O)C(=O)CSc1ccc2ccccc2n1", "NO"),
    ("C[C@]12Cc3cnn(C4CCCCC4)c3C=C1CC[C@@H]1[C@@H]2[C@@H](O)C[C@@]2(C)[C@H]1CC[C@]2(O)C(=O)CO", "YES"),
]
